The reported measurements were obtained from ChEMBL document CHEMBL1126158.

Target or system Acetylcholinesterase (Homo sapiens, UniProt P22303); recorded quantity IC50.
One number for each entry, in nM.

For each of the molecules below, note its IC50.
1. CN1CCC(C[C@H]2Cc3ccccc3C2=O)CC1
2. CC1CCN(Cc2ccc3ccccc3c2)CC1
3. CN1CCC(CCCC2Cc3ccccc3C2=O)CC1 (configuration not stated)
4. CN1CCC(/C=C2\Cc3ccccc3C2=O)CC1
5. CC1CCN(Cc2ccccc2[N+](=O)[O-])CC1
6. CN1CCC(CCN2C(=O)c3ccccc3C2=O)CC1
7. CC1CCN(CC2CCCCC2)CC1

[A]
1. 7.7
2. 2900
3. 1.5
4. 8.4
5. 160
6. 0.9
7. 8.9

---

Target or system Acetylcholinesterase (Homo sapiens, UniProt P22303); recorded quantity IC50.
Give bare numbers, in µM.

>  <MOLECULE>
CC1CCN(Cc2cccc3ccccc23)CC1

>  <IC50 / µM>
0.22

$$$$

For each of the molecules below, note its IC50.
1. CC1CCN(CCc2ccccc2)CC1
2. CN1CCC(CCC2C(=O)Nc3ccccc3C2=O)CC1 (stereo not given)
3. CN1CCN(CC2Cc3ccccc3C2=O)CC1 (stereo not given)
4. CC1CCN(CC2Cc3ccccc3C2=O)CC1 (stereo not given)

[A]
1: 0.18; 2: 0.0042; 3: 0.094; 4: 0.48
